The reported numbers originate from paper PMC5540273.

# System: MELK
# condition.parameters: concentration: 1 μM,replicates: in singlicate; n = 1;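 note: KINOMEscan kinase panel screen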
observation.type: %Inh (%)
Report the value in % with no unit label.

Known results for compounds:
Notebook: pull reported %Inh for MELK, entry Cc1ccc2c(-c3ccncc3)c(-c3ccc(F)cc3)nn2c1.Cl [GW461484]
14

Lookup Cc1ccc(-n2nc(C(C)(C)C)cc2NC(=O)Nc2ccc(OCCN3CCOCC3)c3ccccc23)cc1 [GW839464]
7

Lookup CC(C)N1C(=O)Cc2cc(Nc3ncc(C(F)(F)F)c(NCc4cccc(S(C)(=O)=O)c4)n3)ccc21
0

Lookup Cl.Oc1cc(-c2nc(-c3ccccc3)[nH]c2-c2ccncc2)ccc1Cl [SB-386023]
23

Lookup Cc1cc(C(=O)Nc2ccc(Oc3ccc4nc(NC(=O)C5CC5)cn4n3)cc2)nn1-c1ccccc1
8

Lookup C[C@H]1Oc2cc(cnc2N)-c2c(nn(C)c2C#N)CN(C)C(=O)c2ccc(F)cc21
30

Others:
Notebook: pull reported %Inh for MELK, entry Cl.Cl.NC[C@H](CC1CCCCC1)NC(=O)c1cc(Br)c(-c2ccnc3[nH]ccc23)s1 [GSK1581427]
76

====

# System: TBK1
# condition.parameters: concentration: 1 μM,replicates: in singlicate; n = 1
Items are presented alongside their recorded %Inh.
Report the value in % with no unit label.

Can you look up the measured %Inh of Nc1nc(Nc2ccccc2)cc(-c2ccc3c(N)n[nH]c3c2)n1 for me?
28

Others:
Can you look up the measured %Inh of CN(C)CC(O)COc1ccc(Nc2nccc(-c3cnn4nc(N5CCOCC5)ccc34)n2)cc1 (centres unmarked) for me?
58

Lookup CNC(=O)c1ccccc1Sc1ccc2c(/C=C/c3ccccn3)n[nH]c2c1
36

Lookup Cc1n[nH]c2ccc(-c3cc(OC[C@@H](N)Cc4ccccc4)cnc3-c3ccoc3)cc12.O=C(O)C(F)(F)F.O=C(O)C(F)(F)F
18

Lookup NC(=O)c1cc(-c2ccccc2)cc2c(C3CCNCC3)c[nH]c12
12

Lookup CCn1c(-c2nonc2N)nc2c(C#CC(C)(C)O)nc(OCCN)cc21.Cl.Cl
0

Lookup Cl.Cl.NC[C@H](CC1CCCCC1)NC(=O)c1cc(Br)c(-c2ccnc3[nH]ccc23)s1
1

Lookup CCN(CC)CCCCNc1ncc2cc(-c3c(Cl)cccc3Cl)c(NC(=O)NC(C)(C)C)nc2n1
0

Lookup Cl.Cl.NC[C@H](Cc1ccc(C(F)(F)F)cc1)NC(=O)c1cc(Br)c(-c2ccnc3[nH]ccc23)s1
4

Lookup Cc1cc2cn[nH]c2cc1-c1cccc2c(N)c(C(N)=O)nnc12
47

Lookup Cc1ccc(-n2nc(C(C)(C)C)cc2NC(=O)Nc2ccc(OCCN3CCOCC3)c3ccccc23)cc1
31

Lookup C[C@H]1Oc2cc(cnc2N)-c2c(nn(C)c2C#N)CN(C)C(=O)c2ccc(F)cc21
33

Lookup CCN(CC)CCOc1ccc(Nc2ncc3cc(-c4c(Cl)cccc4Cl)c(=O)n(C)c3n2)cc1
42

Lookup O=C(NCCNc1ccnc(NCc2ccc(F)cc2)n1)c1cc2ccccc2s1
19

====

# Test system: SRPK2
# condition.parameters: concentration: 1 μM,replicates: in singlicate; n = 1
Items are presented alongside their recorded %Inh.
Report the value in % with no unit label.

Known results for molecules:
Can you look up the measured %Inh of CC(C)Nc1cc(-c2ccc3c(N)n[nH]c3c2)nc(N)n1 for me?
0

Lookup COc1ccc(C[C@@H](CN)NC(=O)c2cc(Br)c(-c3ccnc4[nH]ccc34)s2)cc1.Cl.Cl
0

Lookup CNC(=O)c1ccccc1Sc1ccc2c(/C=C/c3ccccn3)n[nH]c2c1
12

Lookup Cl.Oc1cc(-c2nc(-c3ccccc3)[nH]c2-c2ccncc2)ccc1Cl
0

Lookup C[C@@H]1CCN(C(=O)CC#N)C[C@@H]1N(C)c1ncnc2[nH]ccc12
18

Others:
Can you look up the measured %Inh of Cl.Cl.Nc1nc(-c2ccc3c(N)n[nH]c3c2)cc(N2CCCC(NC(=O)c3ccccc3)C2)n1 (stereo not shown) for me?
0

Lookup Cl.Cl.NC[C@H](CC1CCCCC1)NC(=O)c1cc(Br)c(-c2ccnc3[nH]ccc23)s1
14

Lookup C[C@H]1Oc2cc(cnc2N)-c2c(nn(C)c2C#N)CN(C)C(=O)c2ccc(F)cc21
0

Lookup CN(C)CC(O)COc1ccc(Nc2nccc(-c3cnn4nc(N5CCOCC5)ccc34)n2)cc1 (stereo not shown)
8

Lookup Cc1cc(C(=O)Nc2ccc(Oc3ccc4nc(NC(=O)C5CC5)cn4n3)cc2)nn1-c1ccccc1
33
